Experiment: clinical
Conditions: human, in vivo
Readout Kind: clearance (mL/min)
Write down the numeric answer in mL/min and omit the unit.

clearance measured on "CNC(=O)c1ccccc1Sc1ccc2c(/C=C/c3ccccn3)n[nH]c2c1" = 243

---

Assay: clinical
Conditions: human, in vivo
Readout Kind: Vd (L)
Report the value in L with no unit label.

So, "CNC(=O)c1ccccc1Sc1ccc2c(/C=C/c3ccccn3)n[nH]c2c1" ? Its Vd was 47.3

---

Assay: Axitinib exposure
Format: in vivo
Conditions: human, plasma, oral
Readout Kind: AUC (ng·h/mL)
The reply should be a number in ng·h/mL, with the unit left off.

Entry "CNC(=O)c1ccccc1Sc1ccc2c(/C=C/c3ccccn3)n[nH]c2c1" ; AUC = 375
